These measurements were taken from patent US20260042834A1.

Form field: mCrhr1 Luciferase Reporter Assay IC50 (one value per entry).
# Tested on: T1, corticotropin-releasing hormone (CRH) peptide (human and mouse (same sequence), not fully specified)
# T1 peptide: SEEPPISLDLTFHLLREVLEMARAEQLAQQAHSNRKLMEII
# Assay summary: cell-based or functional assay
Form entry: value (nM) — number only.

Before answering, review these 2 worked examples.
| Binder | Quantity | Assay result |
| --- | --- | --- |
| PR302341-20 (antibody, human IgG1, kappa, V domains shown) VH: QVQLVQSGAEVKKPGASVKVSCKASGYTFTDYFMKWVRQAPGQRLEWMGVINPNNGDIFYNQKFKGRVTITRDTSASTAYMELSSLRSEDTAVYYCARGTDRALFAYWGQGTLVTVSS VL: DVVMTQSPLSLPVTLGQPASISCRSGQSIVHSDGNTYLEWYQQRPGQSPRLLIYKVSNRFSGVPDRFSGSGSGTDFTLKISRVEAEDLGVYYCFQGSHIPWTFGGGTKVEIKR | mCrhr1 Luciferase Reporter Assay IC50 | 0.451 |
| PR302341 (antibody, human IgG1, kappa, V domains shown) VH: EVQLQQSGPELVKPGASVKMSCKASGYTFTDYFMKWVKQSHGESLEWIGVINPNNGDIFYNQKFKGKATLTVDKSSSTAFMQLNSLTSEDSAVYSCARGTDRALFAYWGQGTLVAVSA VL: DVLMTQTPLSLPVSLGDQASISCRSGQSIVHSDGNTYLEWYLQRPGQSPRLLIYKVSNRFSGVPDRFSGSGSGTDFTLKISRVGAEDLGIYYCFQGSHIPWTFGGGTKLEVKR | mCrhr1 Luciferase Reporter Assay IC50 | 0.611 |

Form field mCrhr1 Luciferase Reporter Assay IC50, entry PR302341-19 (antibody, human IgG1, kappa, V domains shown) VH: QVQLVQSGAEVKKPGASVKVSCKASGYTFTDYFMKWVRQAPGQGLEWMGVINPNNGDIFYNQKFKGRVTMTRDTSTSTVYMELSSLRSEDTAVYYCARGTDRALFAYWGQGTLVTVSS VL: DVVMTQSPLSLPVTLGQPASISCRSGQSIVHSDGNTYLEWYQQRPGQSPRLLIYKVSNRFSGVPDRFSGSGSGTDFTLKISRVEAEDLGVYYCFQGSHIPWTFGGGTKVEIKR : 0.365
